molecular target: LTC4S (Homo sapiens (Human)); assay: Human LTC4S enzymatic assay (HTRF detection of LTC4-Me); assay type: biochemical; conditions: 0.75 nM enzyme, 400 μM GSH, 5 μM LTA4-Me, 15 min pre-incubation; read-out: human LTC4S IC50 (enzymatic assay)
endpoint name: IC50 (nM)
Answers are plain numbers, in nM.

Before answering, review these 5 worked examples.
>  <compound smiles>
O=C1CCCC2(CCN(c3nsc(N4CC(C(F)(F)F)C4)n3)CC2)N1c1ccc(Cl)c(F)c1

>  <endpoint name>
IC50

>  <measured number>
33

$$$$
>  <compound smiles>
O=C1CCCC2(CCN(c3cnn(-c4ccc(F)cc4)n3)CC2)N1c1ccc(Cl)c(F)c1

>  <endpoint name>
IC50

>  <measured number>
15

$$$$
>  <compound smiles>
O=C1CCCC2(CCN(c3ncc(C4CCCCC4)o3)CC2)N1c1ccc(Cl)c(F)c1

>  <endpoint name>
IC50

>  <measured number>
25

$$$$
>  <compound smiles>
O=C1CCCC2(CCN(c3noc([C@H]4C[C@@H]4C(F)(F)F)n3)CC2)N1c1ccc(Cl)c(F)c1

>  <endpoint name>
IC50

>  <measured number>
44

$$$$
>  <compound smiles>
O=C1CCCC2(CCN(c3nc(N4CCCC4)nnc3O)CC2)N1c1ccc(Cl)c(F)c1

>  <endpoint name>
IC50

>  <measured number>
7

$$$$

Would you mind giving IC50 for every compound in the list below?
1. O=C1CCCC2(CCN(c3cc(-c4ccc(F)cc4)cc[n+]3[O-])CC2)N1c1ccc(Cl)c(F)c1
2. O=C1CCCC2(CCN(c3noc(C45CC(C(F)(F)F)(C4)C5)n3)CC2)N1c1ccc(Cl)c(F)c1
3. O=C1CCCC2(CCN(c3cccc(-c4ccc(F)cc4)n3)CC2)N1c1ccc(Cl)cc1
4. O=C1CCCC2(CCN(c3ncnc(N4CCCC4)c3F)CC2)N1c1ccc(Cl)c(F)c1

OUTPUT:
1. 24
2. 76
3. 7
4. 6

Parameter requested: IC50. Apply to each item below.
1. O=C1CCCC2(CCN(c3nc(-c4ccc(F)cc4)n[nH]3)CC2)N1c1ccc(Cl)c(F)c1
2. O=C1CCCC2(CCN(c3ncnc(N4CC(C(F)(F)F)C4)c3F)CC2)N1c1ccc(Cl)c(F)c1
3. Cn1cc(-c2ccc(F)cc2)nc(N2CCC3(CCCC(=O)N3c3ccc(Cl)c(F)c3)CC2)c1=O
4. O=C1CCCC2(CCN(c3cc(OCC(F)F)ncn3)CC2)N1c1ccc(Cl)c(F)c1

OUTPUT:
[16, 12, 2, 8]

// batch mode: one IC50 value per listed entry
1. O=C1CCCC2(CCN(c3cc(N4CC(F)(F)C(F)(F)C4)ncn3)CC2)N1c1ccc(Cl)c(F)c1
2. O=C1CCCC2(CCN(c3nsc(N4CCC(F)(F)C4)n3)CC2)N1c1ccc(Cl)c(F)c1
3. O=C1CCCC2(CCN(c3nccc(C(F)(F)F)n3)CC2)N1c1ccc(Cl)c(F)c1

OUTPUT:
1: 13; 2: 61; 3: 8

Values from patent US11708366B2
